Data credit: the supplement of paper PMC8253809

- Tested on: SUDIPGXIX (diffuse intrinsic pontine glioma line)
- ASSAY: maximal growth inhibition (yFin) relative to DMSO / staurosporine; higher = more efficacious
This section presents compounds with their documented maximal growth inhibition values.

- COMPOUND: "CCNC(=O)c1noc(-c2cc(C(C)C)c(O)cc2O)c1-c1ccc(CN2CCOCC2)cc1"
  maximal growth inhibition: "76.3%"
- COMPOUND: "N[C@H]1C[C@@H]1c1ccc(-c2cccc(O)c2)cc1"
  maximal growth inhibition: "87.2%"
- COMPOUND: "C=CCNC1=C2C[C@@H](C)C[C@H](OC)[C@H](O)[C@@H](C)/C=C(\\C)[C@H](OC(N)=O)[C@@H](OC)/C=C\\C=C(/C)C(=O)NC(=CC1=O)C2=O"
  maximal growth inhibition: "92.1%"
- COMPOUND: "O=C(Nc1ccc([N+](=O)[O-])cc1Cl)c1cc(Cl)ccc1O [NICOLSAMIDE]"
  maximal growth inhibition: "89%"
- COMPOUND: "CC(=O)Nc1cccc(-n2c(=O)n(C3CC3)c(=O)c3c(Nc4ccc(I)cc4F)n(C)c(=O)c(C)c32)c1"
  maximal growth inhibition: "106%"
- COMPOUND: "N#CN=C(NCCCCCCOc1ccc(Cl)cc1)Nc1ccncc1"
  maximal growth inhibition: "127%"
- COMPOUND: "O=C1NC(=O)C(c2cnc3ccccn23)=C1c1cn2c3c(cc(F)cc13)CN(C(=O)N1CCCCC1)CC2"
  maximal growth inhibition: "24.1%"
- COMPOUND: "Nc1ccccc1NC(=O)c1ccc(CNc2nccc(-c3cccnc3)n2)cc1"
  maximal growth inhibition: "100%"
- COMPOUND: "NC(=O)Nc1sc(-c2ccc(F)cc2)cc1C(N)=O"
  maximal growth inhibition: "58.5%"
- COMPOUND: "O=C(c1ccc(Nc2nccc(-c3cc4ccccc4s3)n2)cc1)N1CCC(N2CCCC2)CC1"
  maximal growth inhibition: "128%"
- COMPOUND: "Cc1nc(Nc2ncc(C(=O)Nc3c(C)cccc3Cl)s2)cc(N2CCN(CCO)CC2)n1"
  maximal growth inhibition: "50.4%"
- COMPOUND: "CCN(CC)CCNC(=O)c1c(C)[nH]c(/C=C2\\C(=O)Nc3ccc(F)cc32)c1C"
  maximal growth inhibition: "129%"
- COMPOUND: "CC(C)C[C@H](NC(=O)[C@H](CCc1ccccc1)NC(=O)CN1CCOCC1)C(=O)N[C@@H](Cc1ccccc1)C(=O)N[C@@H](CC(C)C)C(=O)[C@@]1(C)CO1"
  maximal growth inhibition: "116%"
- COMPOUND: "CC(C)N(CCCNC(=O)Nc1ccc(C(C)(C)C)cc1)C[C@H]1O[C@@H](n2cc(Br)c3c(N)ncnc32)[C@H](O)[C@@H]1O"
  maximal growth inhibition: "107%"
- COMPOUND: "CC(C)(C)OC(=O)Nc1ccc(-c2cc(C(=O)NCCCCCCC(=O)NO)no2)cc1"
  maximal growth inhibition: "85.3%"
- COMPOUND: "COC(=O)[C@]12CCC(C)(C)C[C@H]1[C@H]1C(=O)C=C3[C@@]4(C)C=C(C#N)C(=O)C(C)(C)[C@@H]4CC[C@@]3(C)[C@]1(C)CC2"
  maximal growth inhibition: "124%"
- COMPOUND: "C[C@@]12OC(=O)[C@]1([C@@H](O)[C@@H]1C=CCCC1)NC(=O)[C@@H]2CCCl"
  maximal growth inhibition: "94.2%"
